The reported numbers originate from ChEMBL document CHEMBL5058577.

- Test system: Fibroblast
- run_description: Multiplex assay against human fibroblast
- Assay type: toxicity, cell-based
- assay_context: 24 h, 10 µM, compound concentration 10 uM, replicate 2
assay_endpoint: Population Mitotic Cells (%)

[[record]]
compound = "CN1C[C@H](C(=O)N[C@]2(C)O[C@@]3(O)[C@@H]4CCCN4C(=O)[C@H](Cc4ccccc4)N3C2=O)C[C@@H]2c3cccc4[nH]cc(c34)C[C@H]21.CS(=O)(=O)O [DIHYDROERGOTAMINE MESYLATE]"
unit_descriptor = "%"
val = 68

[[record]]
compound = "Cc1ccc(OCC(O)C(C)NC(C)C)c2c1CCC2.Cl (stereo not drawn)"
unit_descriptor = "%"
val = 63

[[record]]
compound = "COc1cc2nc(N3CCN(C(=O)c4ccco4)CC3)nc(N)c2cc1OC.Cl [PRAZOSIN HYDROCHLORIDE]"
unit_descriptor = "%"
val = 38

[[record]]
compound = "CC(C)(O)C(=O)N1CCN(c2ccc(C(F)(F)F)c(C3=C(c4c[nH]c5ccccc45)C(=O)NC3=O)c2)CC1"
unit_descriptor = "%"
val = 63

[[record]]
compound = "Cc1c(Cc2ccc3ccccc3n2)c2cc(F)ccc2n1CC(=O)O"
unit_descriptor = "%"
val = 47

[[record]]
compound = "O=C(Nc1cc(-c2ccccc2)nn1-c1ccccc1F)c1ccc([N+](=O)[O-])cc1"
unit_descriptor = "%"
val = 72

[[record]]
compound = "CCn1c(-c2nc3cc(C(=O)N4CCCC(N)C4)ccc3n2C)cc2ccccc21.Cl (stereo not drawn)"
unit_descriptor = "%"
val = 40

[[record]]
compound = "COCCCN1CCC(NC(=O)c2cc(Cl)c(N)c3c2OCC3)CC1 [PRUCALOPRIDE]"
unit_descriptor = "%"
val = 69

